// reported selectivity ratio per item
ASSAY METHOD TEXT: Selectivity index, ratio of IC50 for human HepG2 cells to MIC for Mycobacterium tuberculosis H37Rv ATCC 27294
Format: toxicity
CONDITION DESCRIPTION: read-out: Selectivity Index

- CHEMICAL STRING: "O=C(Nc1nc(-c2ccccn2)cs1)c1cnccn1"
  OBSERVED PROPERTY: "selectivity ratio"
  RESULT: "> 1.1"

Item: COc1ccc(-c2csc(NC(=O)c3cncc(Cl)n3)n2)cc1OC | selectivity ratio: > 6

Item: O=C(Nc1nc(-c2ccc(F)cc2)cs1)c1cnc(Cl)cn1 | selectivity ratio: 2.7

Item: O=C(Nc1nc(-c2ccc(F)cc2)cs1)c1cncc(Cl)n1 | selectivity ratio: > 21.5

Item: COc1ccc(-c2csc(NC(=O)c3cnc(Cl)cn3)n2)cc1 | selectivity ratio: > 16.7

Item: COc1ccc(-c2csc(NC(=O)c3cncc(Cl)n3)n2)cc1 | selectivity ratio: > 5.6

These measurements were taken from ChEMBL document CHEMBL4257500.
